TEST DESCRIPTION: budding yeast growth modifiers under rapamycin – strain BY4716, OD600, 96 h, primary screen (AID 1091); also: test concentration not given here
TEST CONDITIONS: S. cerevisiae BY4716 + rapamycin, higher = more signal, called active from +8 up or from −8 down
Assign class by z-score: not lower than 0.1 means Fulfilled; lower than 0.1 means Not fulfilled.

CCN(CC)c1ccc(N2CC=CC34O[C@@H]5C=CCCOC(=O)C5[C@H]3C(=O)N(C(C)CO)[C@@H]4C2=O)cc1 (stereo not given in full) : Not fulfilled
C=CCNC(=O)[C@H]1[C@@H]2C(=O)O[C@@H](c3ccccc3)[C@@H](c3ccccc3)N2[C@@H](c2ccc(OCCO)cc2)[C@]12C(=O)Nc1ccc(C#CC3(O)CCCCCC3)cc12 : Fulfilled
CN1C(=O)C2C(C1=O)C1C=C(CCCO)C2C(C2CC2)N1Cc1cccc(OC(F)(F)F)c1 (stereo not given) : Not fulfilled
O=C1C[C@@](C(=O)NCc2ccccc2)(c2ccc([N+](=O)[O-])cc2)[C@@H](c2ccc(CO)cc2)N1C1CCCCC1 : Fulfilled
O=C(NCC(O)CO)C1N=C(c2ccc(OCCCO)cc2)N(c2ccccc2)O1 (stereo not given) : Fulfilled

Data origin, for the record: PubChem BioAssay
